Property: IC50; scope: individual compounds
# Tested on: neural stem cells
# ASSAY_REMARKS: Dose-response assay, PrestoBlue, normal brain cell control
# Type: cell-based
# EXPERIMENTAL_SETUP: Homo sapiens, 72-h treatment, N/A, not applicable

COMPOUND	IC50 / µM
COc1c(C)c2c(c(O)c1C/C=C(\C)CCC(=O)NCCCN1CCC1)C(=O)OC2	182
COc1c(C)c2c(c(O)c1C/C=C(\C)CCC(=O)NCCN1CCCC1)C(=O)OC2	70.8
COc1c(C)c2c(c(O)c1C/C=C(\C)CCC(=O)OCCN1CCN(C(=O)OC(C)(C)C)CC1)C(=O)OC2	353
COc1c(C)c2c(c(O)c1C/C=C(\C)CCC(=O)N1CCN(C)CC1)C(=O)OC2	493
COc1c(C)c2c(c(O)c1C/C=C(\C)CCC(=O)OCCN1CCOCC1)C(=O)OC2 [MMF (1), Mycophenolate mofetil]	31.2

* * *

Property: efflux ratio at 2.5 h, 2 μM; scope: individual compounds
# System: MDR1
# ASSAY_REMARKS: Bi-directional permeability via MDR1-MDCKII cells
# Type: in vitro ADME
# EXPERIMENTAL_SETUP: dog, MDCK-MDR1, pH 7.4; 2 μM (digoxin 10 μM), 2.5 h
MEASURED_PROPERTY: efflux ratio at 2.5 h, 2 μM

COMPOUND	MEASUREMENT
C[C@H]1O[C@@H](O[C@H]2[C@@H](O)C[C@H](O[C@H]3[C@@H](O)C[C@H](O[C@H]4CC[C@@]5(C)[C@H](CC[C@@H]6[C@@H]5C[C@@H](O)[C@]5(C)[C@@H](C7=CC(=O)OC7)CC[C@]65O)C4)O[C@@H]3C)O[C@@H]2C)C[C@H](O)[C@@H]1O	21.2
COc1c(C)c2c(c(O)c1C/C=C(\C)CCC(=O)OCCN1CCCC1)C(=O)OC2	0.848
